Test system: MS2 coat protein
methodDescription: apparent KD of MS2 coat protein, switch OFF state (with FMN for OFF switches, without FMN for ON switches); designed switch direction (-1 OFF switch, 1 ON switch): -1; higher = weaker reporter binding
assaySetup: FMN input: 0 or 200 uM; Eterna round: R93 (includes R88 designs)

macromoleculeSequence: AACAGUACAGGAUAUACAUGAGGAUCACCCAUGUAAAAAUAAUAAAAGGGCUCAAAAAGUAGAAGGGUACUGGA [Moding Maslow revisited (73) 15]
apparent KD of MS2 coat protein: 66.3 nM
//
macromoleculeSequence: AAAAAACAUGAGGAUCACCCAUGUGAGGAUAUGUAAAAUAAAAUAAAAAUAAAAAAAAGCAGAAGGUAUAUGAA [Amethyst 66]
apparent KD of MS2 coat protein: 40.6 nM
//
macromoleculeSequence: CUUAUGUGAGGAUAUGUACAGAAAAAACUGGGUGUAACUGUACAGAAGGCACAUGAGGAUCACCCAUGUAAAAA [EX4 387: S S Pseudoknot 12]
apparent KD of MS2 coat protein: 31 nM
//
macromoleculeSequence: AAAAAGUGAGGAUAUGUCAAAAGUCACAAAAGUGACAAAAGACAGAAGGCACAUGAGGAUCACCCAUGUGGGAA [Mod of Eli - Late G + early G segment 1]
apparent KD of MS2 coat protein: 121 nM
//
macromoleculeSequence: AGUUGGCGAGGAUAUACAUGAGGAUCACCCAUGUGAGAGAAAAAAAGGAAAAAAAAAAGUAGAAGGCGCUGACA [Mat - Exclusion 3 - Lego mod - D44]
apparent KD of MS2 coat protein: 69.1 nM
//
macromoleculeSequence: AAAACACAUGAGGAUCACCCAUGUGAGGAUAUGCUAUGGAAAAUAAAAAUAAAACAUAGCAGAAGGCACAAAAA [Denovo 12]
apparent KD of MS2 coat protein: 32.3 nM
//
macromoleculeSequence: CUCUUGUGAGGAUAUCAAAGAAAAGAAAAGAAAGAAAAGAAUGAGAAGGCACAUGAGGAUCACCCAUGUAAGAA [EteRNA is fun!]
apparent KD of MS2 coat protein: 59.5 nM
//
macromoleculeSequence: CUCAUGUCAGGAUAUGUAGCAUGAUACGAAAGUAUCAUGCUACAGAAGGGACAUGAGGAUCACCCAUGUAAAAA [Ex4: 942]
apparent KD of MS2 coat protein: 33.9 nM
//
macromoleculeSequence: AAUAGUGAAGGAUAUACAGGAGAAGAAAGAUAAAAGAAAGAACAUGAGGAUCACCCAUGUAGAAGGUCAGAAGU [JR_Exc002_Sub1229]
apparent KD of MS2 coat protein: 19.9 nM
//
macromoleculeSequence: AAUAUGGGAGGAUAUGCAUAGAUAAAGAAACAUGUUAAAACACAUGAGGAUCACCCAUGUAGAAGGCCCAUAUA [AJ 10]
apparent KD of MS2 coat protein: 335 nM
//
macromoleculeSequence: AGAAAGCUAGGAUAUACCUGGAGGGUUCUAAAUGAAAUAAAACAUGAGGAUCACCCAUGUAGAAGGAGCCCGAA [Sobire]
apparent KD of MS2 coat protein: 16.6 nM
//
macromoleculeSequence: AAAAAGUGAGGAUAUACGGUGUGGAGUAGACACAACCAGGCGUAGAAGGCACAUGAGGAUCACCCAUGUCCAAA [EX4 Malc#15]
apparent KD of MS2 coat protein: 29.1 nM
//
macromoleculeSequence: AAAAUACAUGAGGAUCACCCAUGUGAGGAUAUCUUAAAGGGAAUAAAAUAACUCAAAAAGAGAAGGCGCAAAAA [Ex 1 May 30]
apparent KD of MS2 coat protein: 32 nM
